test: label from the status in PepcDB records
observedProperty: protein production

AIVHEMLKDTHPQYAYRSGMSAQEFTQWQDGVRAAMVEIMKFPEIKRQPSPVCVKTEKKEGYILEKWEFYPFPKSVSTFLVLKPEHLKGAVPGVLCIPGSGRTKEGLVGEPGICDKLTEDYNNPKVSMALNMVKEGYVAVAVDNAAAGEASDLECYDKGWNYDYDVVSRFLLELGWSWLGYTSYLDMQVLNWMKAQSYIRKDRIVISGFSLGTEPMMVLGVLDKDIYAFVYNDFLCQTQERAVVMTKPDKENRRPFPNSIRHLIPGYWRYFNFPDVVASLAPRPIIFTEGGLDRDFRLVQSAYAASGKPENAEFHHYPKFADKAVRKDVEHLDEGLDSKTYFEAVNVDPPSHYFKNELVIPWLRKVLK	not failed
MGESYSSGYSLVVRVIANDRSGLLRDITTILANEKVNVLGVASRSDTKQQLATIDMDIEIYNLQVLGRVLAKLNQLPDVIDARRQQGALEHHHHHH	not failed
MIASVASTTKDRLEIVKAFRNKEITILIATSILERGVTFPNVDVFVINSEHPNFTKSALIQMAGRVGRSPERPTGLVSFFHYGKSKAMCQAVREIKKMNQLGCFSLEHHHHHH	failed
MRRVVIRTEALSCPLDGDEDSNELRLRPLVPDAQEWKYPKSKLFPRHAAWSCHSGGGGGGGGGRVFTNKVNAVEEFNLGGLKDSESDSDSE	failed
MTEDERFAWLQLAFTPYIGAESFLLLMRSFGSAQNALSAPAEQVAPAVRHKHALEAWRNAEKRALARQAAEAALEWEMRDGCRLMLLQDEDFPEMLTQGLTAPPVLFLRGNVRLLHKPSAAIVGSRHATPQAMRIAKDFGRALGGKGIPTVSGMASGIDTAAHQGALEAEGGTVAVWGTGIDRIYPPANKNLAYEIAEKGLIVSEFPIGTRPYAGNFPRRNRLIAALSQVTLVVEAALESGSLITAGLAAEMGREVMAVPGSIDNPHSKGCHKLIKDGAKLTECLDDILNECPGLLQNTGASSYSINKDTPDTGRRAVQTAYAPPPAAKMPSEGAAGGTAVGGILDKMGFDPVHPDVLAGQLAMPAADLYAALLELELDGSVAAMPGGRYQRIRT	failed
MTVRLTFMCATAGGTTRDAVFGDGLLSERGLRRARAAGATLPPYSLAIRAPSVRCAQTAYALGLPTTLEPALRDLDYGTWRGRTVGEVVADEPYGYSAWLTDPDAAPHGGESVRRLCRRIANWLSSVPPYPGRALVITEPSVVRASLVHALSAPVTAFRHFDVPPLSTVSLTLSDGHWIVRPGRVTPDRVGTSRAVPTPYDAAEGRTALLWGEATPA	failed
MQTLNDIYLAYLDSLNHQAFDELGTFVDDNVEHNGRPFGLSGYRDMLVKDFADIPDLRFEAEILVSDATRLAARLFFDCTPKSIFMDLPVNGRRVQFCEHVFYDFEQAKIRRVWSVLDKVAIERQLG	not failed
MIKSIKKNLKPKILISNLILIIGIVIFVTLYGAVFGSANSLVGVCAITAMLMFVDVHLSLKLNEAIITTVLSFVLMGVSSQIASINPFLGFVVNFISIFVVSYLVTNAMETKAYLPFILCYVFIEGTPITWSELPRRLIALFVGGALIALVYYFSHRKKDDSDHMNISEMIKTMNKNTLQFNFSLRMALAVSIAMLLGSILGFQKSMWISITAMSITQPHFDDTKTRVKERFFGTLIGSAIFVLIFVYIVPQQFSSIVLLILSYIYTFIKEYKIKMIFITMSSLGAAMILFQPGVSVPMRIAFIVMGIGIALVVNKVIYGRLKLEESNEELDETIKDIDKVNDEF	failed
MSLLEQLDKNIAASGGLIVSCQPVPGSPLDKPEIVAAMALAAEQAGAVAVRIEGIDNLRMTRSLVSVPIIGIIKRDLDESPVRITPFLDDVDALAQAGAAIIAVDGTARQRPVAVEALLARIHHHHLLAMADCSSVDDGLACQRLGADIIGTTMSGYTTPDTPEEPDLPLVKALHDAGCRVIAEGRYNSPALAAEAIRYGAWAVTVGSAITRLEHICGWYNDALKKAAS	not failed
MDAAVTDDFQQILPIEQLRSTHASNDYVERPPAPCKQALSSPSLIVQTHKSDWSLATMPTSLPRSLSQCHQLQPLPQHLSQSSIASSMSHSTTASDQRLLASITPSPSGQSIIRTQPGAGVHPKADGALKGEAEQSAGHPSEHLFICEECGRCKCVPCTAARPLPSCWLCNQRCLCSAESLLDYGTCLCCVKGLFYHCSTDDEDNCADEPCSCGPSSCFVRWAAMSLISLFLPCLCCYLPTRGCLHLCQQGYDSLRRPGCRCKRHTNTVCRKISSGSAPFPKAQEKSV	failed

// protein production lookup, key: `MRGAESLVTLNHKILRPCRKLLIRITKSCPRRHNRHLKLKKASSSSSTASGNKVTKVVALFFLSFHKKKQKKEKMKRLNELRSFSHAVNDQKKKAPKQESSKKVFPSRLTMSWLGQGKGNNNNTQEVPQEHDARRDSTSAFIP` failed

// protein production lookup, key: `MESIGLVEVNSIARGIEAADAMLKAAQVDLLEAKPVCPGKYIVLICGDVAAVQSSVTAGKTMAAHSVLDDFILPNVHPQVLTAISAATPLTLIKALGIIETFSIASLIVAADTAAKTGQVDLVEIRIGMGIGGKSFVTLTGDVASVESSVAAGVMLASERGMLVDKVVIPSPHDHLKRCLC` not failed

Find the recorded protein production belonging to `MNIGVIILAAGEGKRFGGDKLLAKIDNTPIIMRTIRIYGDLEKIIIVGKYVNEMLPLLMDQIVIYNPFWNEGISTSLKLGLRFFKDYDAVLVALGDMPFVTKEDVNKIINTFKPNCKAVIPTHKGERGNPVLISKSLFNEIEKLRGDVGARVILNKIKIEELCFIECSEGVLIDIDKKEDLMRLRDFHP` and report it. failed

The measured values listed here are drawn from a protein production outcome set (Wang et al. 2014).
